- Test system: NCI/ADR-RES ovarian
- Measurement description: NCI tumour cell line growth inhibition, 48 h; in the data active = GI50 below about 0.43 µM; inactive = the rest
Outcome codes: active, inactive

INSERT INTO results (compound, class_name) VALUES
  ('O=C(CCCC(=O)N/N=C/c1cc(Cl)ccc1O)N/N=C\c1cc(Cl)ccc1O', 'inactive'),
  ('O=C(c1ccccc1)C1OC1C(=O)c1ccccc1 (stereo not given)', 'inactive'),
  ('CC1(C)N=c2cc3c(cc2N1c1ccc(Cl)cc1)=Nc1ccccc1N3c1ccc(Cl)cc1', 'inactive'),
  ('CC1(C)CCc2c(c(N=Nc3ccccc3F)c3ccccc3c2O)O1', 'inactive'),
  ('CCOC(=O)Nc1ccc2c(c1)C(=O)N(CC)c1ccccc1O2', 'active'),
  ('S=C1SCN(Cc2ccccc2)CN1Cc1ccccc1', 'inactive'),
  ('FC(F)(F)c1cc(NC(=S)N2c3ccccc3-n3cccc3C2c2cccnc2)cc(C(F)(F)F)c1 (stereo not given)', 'inactive'),
  ('CCc1cccc(NC(=O)Nc2ccc(Oc3ccc4nc(NC(=O)OC)[nH]c4c3)cc2)c1', 'inactive'),
  ('CCCS(=O)(=O)Nc1cccc(Nc2ncnc3cc(NC(=O)CCl)ccc23)c1Cl', 'inactive'),
  ('O=C(Nc1ccccc1Cl)c1ccc(NC2=C(Cl)C(=O)N(C3CCCCC3)C2=O)cc1', 'inactive');
